Reported Ratio (by comparison with "Bleomycin Complex") values follow for various compounds
test system: pulmonary fibrosis; assay: Pulmonary toxicity (pulmonary fibrosis) in mice; conditions: versus Bleomycin Complex
Number only, please.

Some solved cases for reference:
1) Cc1c(N)nc(C(CC(N)=O)NCC(N)C(=O)NCc2ccccc2)nc1C(=O)NC(C(=O)NC(C)C(O)C(C)C(=O)NC(C(=O)NCCc1nc(-c2nc(C(=O)NCCC[N+](C)(CCCN(Cc3ccccc3)Cc3ccccc3)Cc3ccccc3)cs2)cs1)C(C)O)C(OC1OC(CO)C(O)C(O)C1OC1OC(CO)C(O)C(OC(N)=O)C1O)c1cnc[nH]1 (stereo not shown) :: 0
2) Cc1c(N)nc(C(CC(N)=O)NCC(N)C(=O)NCCC[N+](C)(CCCN(Cc2ccccc2)Cc2ccccc2)Cc2ccccc2)nc1C(=O)NC(C(=O)NC(C)C(O)C(C)C(=O)NC(C(=O)NCCc1nc(-c2nc(C(=O)NCCC[N+](C)(CCCN(Cc3ccccc3)Cc3ccccc3)Cc3ccccc3)cs2)cs1)C(C)O)C(OC1OC(CO)C(O)C(O)C1OC1OC(CO)C(O)C(OC(N)=O)C1O)c1cnc[nH]1 (stereo not shown) :: 0
3) Cc1c(N)nc(C(CC(N)=O)NCC(N)C(=O)NCCN2CCNCC2)nc1C(=O)NC(C(=O)NC(C)C(O)C(C)C(=O)NC(C(=O)NCCc1nc(-c2nc(C(=O)NCCCNC(C)c3ccccc3)cs2)cs1)C(C)O)C(OC1OC(CO)C(O)C(O)C1OC1OC(CO)C(O)C(OC(N)=O)C1O)c1cnc[nH]1 (stereo not shown) :: 0.44
4) Cc1c(N)nc(C(CC(N)=O)NCC(N)C(=O)NCCCNC(C)c2ccccc2)nc1C(=O)NC(C(=O)NC(C)C(O)C(C)C(=O)NC(C(=O)NCCc1nc(-c2nc(C(=O)NCCC[N+](C)(CCCN(Cc3ccccc3)Cc3ccccc3)Cc3ccccc3)cs2)cs1)C(C)O)C(OC1OC(CO)C(O)C(O)C1OC1OC(CO)C(O)C(OC(N)=O)C1O)c1cnc[nH]1 (stereo not shown) :: 0
5) CCCCNCCCN(C)CCCNC(=O)c1csc(-c2csc(CCNC(=O)C(NC(=O)C(C)C(O)C(C)NC(=O)C(NC(=O)c3nc(C(CC(N)=O)NCC(N)C(=O)NC(C)C)nc(N)c3C)C(OC3OC(CO)C(O)C(O)C3OC3OC(CO)C(O)C(OC(N)=O)C3O)c3cnc[nH]3)C(C)O)n2)n1 (stereo not shown) :: 0.46
6) CCCCCCCCNC(=O)C(N)CNC(CC(N)=O)c1nc(N)c(C)c(C(=O)NC(C(=O)NC(C)C(O)C(C)C(=O)NC(C(=O)NCCc2nc(-c3nc(C(=O)NCCCN(C)CCCNCC4CCCCCCC4)cs3)cs2)C(C)O)C(OC2OC(CO)C(O)C(O)C2OC2OC(CO)C(O)C(OC(N)=O)C2O)c2cnc[nH]2)n1 (stereo not shown) :: 0
7) CCCCCCCCNC(=O)C(N)CNC(CC(N)=O)c1nc(N)c(C)c(C(=O)NC(C(=O)NC(C)C(O)C(C)C(=O)NC(C(=O)NCCc2nc(-c3nc(C(=O)NCCCN(C)CCCNCc4ccc(C#N)cc4)cs3)cs2)C(C)O)C(OC2OC(CO)C(O)C(O)C2OC2OC(CO)C(O)C(OC(N)=O)C2O)c2cnc[nH]2)n1 (stereo not shown) :: 0
8) CCCCCCCCNC(=O)C(N)CNC(CC(N)=O)c1nc(N)c(C)c(C(=O)NC(C(=O)NC(C)C(O)C(C)C(=O)NC(C(=O)NCCc2nc(-c3nc(C(=O)NCCC[N+](CC)(CC)CCCN(Cc4ccccc4)Cc4ccccc4)cs3)cs2)C(C)O)C(OC2OC(CO)C(O)C(O)C2OC2OC(CO)C(O)C(OC(N)=O)C2O)c2cnc[nH]2)n1 (stereo not shown) :: 0

**Q:** Please give the measured Ratio (by comparison with "Bleomycin Complex") for this compound: CCCCN(CCCC)CCCNC(=O)C(N)CNC(CC(N)=O)c1nc(N)c(C)c(C(=O)NC(C(=O)NC(C)C(O)C(C)C(=O)NC(C(=O)NCCc2nc(-c3nc(C(=O)NCCCN(C)CCCNCC4CCCCCCC4)cs3)cs2)C(C)O)C(OC2OC(CO)C(O)C(O)C2OC2OC(CO)C(O)C(OC(N)=O)C2O)c2cnc[nH]2)n1 (stereo not shown)
**A:** 0

**Q:** # query: Ratio (by comparison with "Bleomycin Complex") of entry Cc1c(N)nc(C(CC(N)=O)NCC(N)C(=O)NCCCNC(C)c2ccccc2)nc1C(=O)NC(C(=O)NC(C)C(O)C(C)C(=O)NC(C(=O)NCCc1nc(-c2nc(C(=O)NCCC[N+](C)(C)CCCN(Cc3ccccc3)Cc3ccccc3)cs2)cs1)C(C)O)C(OC1OC(CO)C(O)C(O)C1OC1OC(CO)C(O)C(OC(N)=O)C1O)c1cnc[nH]1 (stereo not shown)
**A:** 0

###

// reported Incidence: Number of mice with pulmonary fibrosis (%) per item
tested on: pulmonary fibrosis; assay: Pulmonary toxicity (pulmonary fibrosis) in mice; details: ICR mice, 5 mg/kg i.p. once a day for 10 days, 5 weeks observation
Use % as the unit, but write only the number.

Observe how each entry below is paired with its result.
1. CCCCN(CCCC)CCCNC(=O)C(N)CNC(CC(N)=O)c1nc(N)c(C)c(C(=O)NC(C(=O)NC(C)C(O)C(C)C(=O)NC(C(=O)NCCc2nc(-c3nc(C(=O)NCCC[N+](CC)(CC)CCCN(Cc4ccccc4)Cc4ccccc4)cs3)cs2)C(C)O)C(OC2OC(CO)C(O)C(O)C2OC2OC(CO)C(O)C(OC(N)=O)C2O)c2cnc[nH]2)n1 (stereo not drawn) [Compound 57] :: 0
2. CCCCCCCCNC(=O)C(N)CNC(CC(N)=O)c1nc(N)c(C)c(C(=O)NC(C(=O)NC(C)C(O)C(C)C(=O)NC(C(=O)NCCc2nc(-c3nc(C(=O)NCCC[N+](C)(C)CCCN(Cc4ccccc4)Cc4ccccc4)cs3)cs2)C(C)O)C(OC2OC(CO)C(O)C(O)C2OC2OC(CO)C(O)C(OC(N)=O)C2O)c2cnc[nH]2)n1 (stereo not drawn) [Compound 53] :: 0
3. CCCCN(CCCC)CCCNC(=O)C(N)CNC(CC(N)=O)c1nc(N)c(C)c(C(=O)NC(C(=O)NC(C)C(O)C(C)C(=O)NC(C(=O)NCCc2nc(-c3nc(C(=O)NCCCN(C)CCCNCC4CCCCCCC4)cs3)cs2)C(C)O)C(OC2OC(CO)C(O)C(O)C2OC2OC(CO)C(O)C(OC(N)=O)C2O)c2cnc[nH]2)n1 (stereo not drawn) [Compound 58] :: 0
4. Cc1c(N)nc(C(CC(N)=O)NCC(N)C(=O)NCCCNC(C)c2ccccc2)nc1C(=O)NC(C(=O)NC(C)C(O)C(C)C(=O)NC(C(=O)NCCc1nc(-c2nc(C(=O)NCCCN(C)CCCNCCc3ccc(Cl)cc3)cs2)cs1)C(C)O)C(OC1OC(CO)C(O)C(O)C1OC1OC(CO)C(O)C(OC(N)=O)C1O)c1cnc[nH]1 (stereo not drawn) [Compound 43] :: 0
5. Cc1c(N)nc(C(CC(N)=O)NCC(N)C(=O)NCCCNC(C)c2ccccc2)nc1C(=O)NC(C(=O)NC(C)C(O)C(C)C(=O)NC(C(=O)NCCc1nc(-c2nc(C(=O)NCCC[N+](C)(C)CCCN(Cc3ccccc3)Cc3ccccc3)cs2)cs1)C(C)O)C(OC1OC(CO)C(O)C(O)C1OC1OC(CO)C(O)C(OC(N)=O)C1O)c1cnc[nH]1 (stereo not drawn) [Compound 52] :: 0

Continue with the molecule presented below.
**Q:** Give its Incidence: Number of mice with pulmonary fibrosis (%) value. Item: CCCCN(CCCC)CCCNC(=O)C(N)CNC(CC(N)=O)c1nc(N)c(C)c(C(=O)NC(C(=O)NC(C)C(O)C(C)C(=O)NC(C(=O)NCCc2nc(-c3nc(C(=O)NCCC[N+](C)(C)CCCN(Cc4ccccc4)Cc4ccccc4)cs3)cs2)C(C)O)C(OC2OC(CO)C(O)C(O)C2OC2OC(CO)C(O)C(OC(N)=O)C2O)c2cnc[nH]2)n1 (stereo not drawn) [Compound 54]
**A:** 0

###

details: CDF1/SLC male mice, s.c. once a day for 10 days, Behrens-Karber, daily dose
Entries annotated with measured LD50 during administration period of 10 consecutive days

As a guide, the following entries are already answered.
1) CCCCCCCCNC(=O)C(N)CNC(CC(N)=O)c1nc(N)c(C)c(C(=O)NC(C(=O)NC(C)C(O)C(C)C(=O)NC(C(=O)NCCc2nc(-c3nc(C(=O)NCCCN(C)CCCN(Cc4ccc(OCc5ccccc5)c(OCc5ccccc5)c4)Cc4ccc(OCc5ccccc5)c(OCc5ccccc5)c4)cs3)cs2)C(C)O)C(OC2OC(CO)C(O)C(O)C2OC2OC(CO)C(O)C(OC(N)=O)C2O)c2cnc[nH]2)n1 (stereo not drawn) [Compound 65] :: > 75.7 mg/kg/day
2) Cc1c(N)nc(C(CC(N)=O)NCC(N)C(=O)NCCCNC(C)c2ccccc2)nc1C(=O)NC(C(=O)NC(C)C(O)C(C)C(=O)NC(C(=O)NCCc1nc(-c2nc(C(=O)NCCCN(C)CCCN(Cc3ccc(OCc4ccccc4)c(OCc4ccccc4)c3)Cc3ccc(OCc4ccccc4)c(OCc4ccccc4)c3)cs2)cs1)C(C)O)C(OC1OC(CO)C(O)C(O)C1OC1OC(CO)C(O)C(OC(N)=O)C1O)c1cnc[nH]1 (stereo not drawn) [Compound 64] :: > 81.4 mg/kg/day

**Q:** Quick one: LD50 during administration period of 10 consecutive days for Cc1c(N)nc(C(CC(N)=O)NCC(N)C(=O)NCCCNC(C)c2ccccc2)nc1C(=O)NC(C(=O)NC(C)C(O)C(C)C(=O)NC(C(=O)NCCc1nc(-c2nc(C(=O)NCCC[N+](C)(C)CCCN(Cc3ccccc3)Cc3ccccc3)cs2)cs1)C(C)O)C(OC1OC(CO)C(O)C(O)C1OC1OC(CO)C(O)C(OC(N)=O)C1O)c1cnc[nH]1 (stereo not drawn) [Compound 52] ?
**A:** 13.9 mg/kg/day
